# target_or_system: T1, histidine-tagged human Siglec-7 (NovoProtein) (human, UniProt Q9Y286 19-353)
# T1 construct: Bought protein; also called recombinant human Siglec-7; recombinant Siglec-7; not shown: histidine tag
# T1 sequence (Q9Y286 19-353 limits assumed): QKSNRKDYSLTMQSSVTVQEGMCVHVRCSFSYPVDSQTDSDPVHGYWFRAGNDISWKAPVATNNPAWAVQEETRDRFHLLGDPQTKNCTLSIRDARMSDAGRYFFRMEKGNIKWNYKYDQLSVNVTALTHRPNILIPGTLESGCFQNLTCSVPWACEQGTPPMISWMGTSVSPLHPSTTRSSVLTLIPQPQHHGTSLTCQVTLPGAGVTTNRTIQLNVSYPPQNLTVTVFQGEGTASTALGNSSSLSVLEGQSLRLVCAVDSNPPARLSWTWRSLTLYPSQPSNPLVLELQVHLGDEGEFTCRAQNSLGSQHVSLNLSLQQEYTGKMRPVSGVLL
# assay: BLI, antibody captured
parameter: fold improvement over S7AB-H8
Answer format: number, then unit.

{"binder": "S7AB-H8.45 (antibody, V domains shown) VH: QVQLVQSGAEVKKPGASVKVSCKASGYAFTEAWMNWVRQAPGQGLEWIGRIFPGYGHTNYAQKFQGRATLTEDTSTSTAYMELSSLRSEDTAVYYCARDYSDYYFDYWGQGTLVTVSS VL: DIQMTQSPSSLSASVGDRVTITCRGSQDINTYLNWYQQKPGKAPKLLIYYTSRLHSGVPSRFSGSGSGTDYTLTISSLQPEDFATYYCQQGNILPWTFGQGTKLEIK", "fold improvement over S7AB-H8": "2.4 fold"}

Now examine the next entry.
For record S7AB-H8.23 (antibody, V domains shown) VH: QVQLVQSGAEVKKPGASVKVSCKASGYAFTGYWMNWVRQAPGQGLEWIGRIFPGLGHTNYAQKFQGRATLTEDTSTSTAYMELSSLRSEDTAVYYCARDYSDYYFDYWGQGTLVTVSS VL: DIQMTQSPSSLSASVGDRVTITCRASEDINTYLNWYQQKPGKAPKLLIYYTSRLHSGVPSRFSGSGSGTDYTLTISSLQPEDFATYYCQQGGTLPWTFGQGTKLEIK the listed fold improvement over S7AB-H8 is 4.5 fold
